# testName: NCI Yeast Anticancer Drug Screen. Data for the mec2-1 strain (AID 157)
# cond: S. cerevisiae mec2-1 strain, at 50.0 µM, stronger effect = higher value
The panel holds about 79,000 compounds, 15% with a hit somewhere; the sample as a whole holds those more often.
Collected growth inhibition values appear next to each entry.
resultType: growth inhibition (%)

[[record]]
compound = "Nc1ccc(Br)c2ccccc12"
readingunit = "%"
resultnumber = 22.1

[[record]]
compound = "Nc1nc(=S)c2[nH]cnc2[nH]1"
readingunit = "%"
resultnumber = -4.95

[[record]]
compound = "O=P(O)(O)OC1C(OP(=O)(O)O)C(OP(=O)(O)O)C(OP(=O)(O)O)C(OP(=O)(O)O)C1OP(=O)(O)O.[Cu+2] (stereo unspecified)"
readingunit = "%"
resultnumber = -18.8

[[record]]
compound = "CCOc1ccc(/C=C\\C(=O)O)cc1"
readingunit = "%"
resultnumber = -19.6

[[record]]
compound = "CC(=O)CC1(O)C(=O)C(C(C)(C)C)=CC2(C(C)(C)C)OC12 (stereo unspecified)"
readingunit = "%"
resultnumber = -13.1

[[record]]
compound = "N#CC(C(=O)C(=O)Nc1cccc(C(F)(F)F)c1)c1c(Cl)cccc1Cl (stereo unspecified)"
readingunit = "%"
resultnumber = 11.6

[[record]]
compound = "CCOC(=O)c1c(C(=O)Nc2ccccc2)c(-c2ccccc2)n(NC(=O)c2cccc(Cl)c2)c1C"
readingunit = "%"
resultnumber = 10.3

[[record]]
compound = "N#CNS(=O)(=O)c1ccccc1"
readingunit = "%"
resultnumber = -5.6

[[record]]
compound = "CCOc1ccc(-c2oc(/C=N/NS(=O)(=O)c3ccc(C)cc3)c([N+](=O)[O-])c2-c2ccc(OCC)cc2)cc1"
readingunit = "%"
resultnumber = 37.5

[[record]]
compound = "COc1cc(NC(C)CCCN)c2nccc(C)c2c1 (stereo unspecified)"
readingunit = "%"
resultnumber = 12.2

[[record]]
compound = "COc1cc(CCNC(=O)CC(C)C)ccc1OCc1ccccc1"
readingunit = "%"
resultnumber = -27


---

# testName: NCI Yeast Anticancer Drug Screen. Data for the cln2 rad14 strain (AID 165);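 note: 0% = growth equal to vehicle treated cultures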
# cond: S. cerevisiae cln2 rad14 strain, at 50.0 µM
This is part of a sample that, as a whole, favours compounds with a hit. Of some 79,000 tested, about 15% had one in any assay. Active and inactive are the calls of the source. Rule as the data show it: active = growth inhibition above about 70%; inactive = the rest.
Labels: active, inactive

[[record]]
molecule = "NC(=O)Cc1ccccn1"
assignedcategory = "inactive"

[[record]]
molecule = "CC(C(=O)O)n1c(=O)ssc1=O (stereo unspecified)"
assignedcategory = "inactive"

[[record]]
molecule = "Oc1ccc2c(c1)c1ccccc1c1ncccc21"
assignedcategory = "inactive"

[[record]]
molecule = "CC1(C)CC2(C)Sc3ccccc3N2C(=S)N1 (stereo unspecified)"
assignedcategory = "inactive"

[[record]]
molecule = "C[n+]1cccc(C(=O)O)c1-c1ccccc1"
assignedcategory = "inactive"

[[record]]
molecule = "COC1=CC(=O)C=C(C)C1=O"
assignedcategory = "inactive"

[[record]]
molecule = "c1ccc2c(c1)C(=Nc1ccc(N=C3c4ccccc4-c4ccccc43)cc1)c1ccccc1-2"
assignedcategory = "inactive"

[[record]]
molecule = "O=C(c1ccc(Cl)cc1)c1cc([N+](=O)[O-])cc([N+](=O)[O-])c1"
assignedcategory = "inactive"

[[record]]
molecule = "CC1(C)OC(=O)C(=Cc2ccc(C#N)cc2)C(=O)O1"
assignedcategory = "inactive"

[[record]]
molecule = "Cc1cc(C)c(C#N)c(SC(C(=O)NC(C)(C)C)c2ccccc2)n1 (stereo unspecified)"
assignedcategory = "inactive"

[[record]]
molecule = "N#CC(c1cccs1)C1CCCCC1 (stereo unspecified)"
assignedcategory = "inactive"

[[record]]
molecule = "CCN(CC)CCOC(=O)c1noc2cc([N+](=O)[O-])ccc12"
assignedcategory = "inactive"

[[record]]
molecule = "O=c1oc2ccccc2c(=O)n1O"
assignedcategory = "inactive"

[[record]]
molecule = "Cc1ccc(C(=O)OCc2ccccc2CN2CCCCC2)cc1"
assignedcategory = "inactive"

[[record]]
molecule = "Cn1nc2ccc3nccc(NCCNCCO)c3c2n1"
assignedcategory = "inactive"

[[record]]
molecule = "O=C(O)/C=C/C(=O)Nc1ccccc1NC(=O)/C=C/C(=O)O"
assignedcategory = "inactive"

[[record]]
molecule = "CC(C)(C)c1cc2c3c(c1)C(C(F)(F)F)(C(F)(F)F)OS3(=O)(O)OC2(C(F)(F)F)C(F)(F)F"
assignedcategory = "inactive"

[[record]]
molecule = "O=[N+]([O-])c1cc(F)ccc1Sc1ccccc1"
assignedcategory = "inactive"

[[record]]
molecule = "CCc1ccc(OC(=O)CCl)cc1"
assignedcategory = "inactive"

[[record]]
molecule = "Cc1ccc(C(C)C)cc1NC(=O)c1cccc([N+](=O)[O-])c1"
assignedcategory = "inactive"

[[record]]
molecule = "CN(N=O)C(=O)NC(CCCCNC(=O)OCc1ccccc1)C(=O)OCc1ccccc1 (stereo unspecified)"
assignedcategory = "inactive"

[[record]]
molecule = "CCCCCOC(=S)S.[Ag]"
assignedcategory = "inactive"

[[record]]
molecule = "Cc1ccc2c(C)cc(=O)n(C)c2c1"
assignedcategory = "inactive"

[[record]]
molecule = "Cc1ccc(OCC(=O)C2CSc3ccc(Cl)cc32)cc1 (stereo unspecified)"
assignedcategory = "active"

[[record]]
molecule = "c1ccc2c[n+](Cc3ccc4ccccc4n3)ccc2c1"
assignedcategory = "inactive"

[[record]]
molecule = "CN1CCOC1(C)CO (stereo unspecified)"
assignedcategory = "inactive"

